Test system: Candida albicans
assayInfo: In vitro antifungal activity against Candida albicans B311.
Assay type: functional
valueType: MIC (µg/mL)

>>> observedvalue("O=C1c2ccccc2-c2nccc3ccnc1c23")
1.56
>>> observedvalue("Cc1c2c(nc3ccccc13)C(=O)c1ccccc1C2=O")
25
>>> observedvalue("COc1cnc2c3c(nccc13)-c1ccccc1C2=O")
3.12
>>> observedvalue("C[C@@H]1[C@H](O)[C@@H](C)/C=C/C=C/C=C/C=C/C=C/C=C/C=C/[C@H](O[C@@H]2O[C@H](C)[C@@H](O)[C@H](N)[C@@H]2O)C[C@@H]2O[C@](O)(C[C@@H](O)C[C@@H](O)[C@H](O)CC[C@@H](O)C[C@@H](O)CC(=O)O[C@H]1C)C[C@H](O)[C@H]2C(=O)O")
0.78

P. O=C1c2ccccc2-c2nccc3c(Br)cnc1c23
Q. [N-]=[N+]=Nc1cnc2c3c(nccc13)-c1ccccc1C2=O
R. Cc1ccnc2c1C(=O)c1ccccc1C2=O
S. O=C1c2ccccc2-c2nccc3c(Cl)cnc1c23
T. CCc1ccnc2c1C(=O)c1ccccc1C2=O
// query // sort entries: MIC, high to low Record the ranking as a list of labels in the requested order.
// result T, Q, R, P, S
(T: 100 µg/mL, Q: 25 µg/mL, R: 12.5 µg/mL, P: 3.12 µg/mL, S: 0.39 µg/mL)
